The reported measurements were obtained from paper PMC5608322.

# system-under-test: the molecule itself
# test-summary: native MS; nano-ESI Q-ToF, positive ion mode, 150 mM ammonium acetate pH 8, soft ionization; tandem MS/MS (CID) of hexamer ions gives monomers and pentamers; oligomer of the protein with itself
measured-parameter: stoichiometry N

INSERT INTO results (protein, measured_parameter, numeric_readout) VALUES
  ('CcmK4 from Synechocystis sp. PCC6803, TEV-proteolysis product of K4^-TH (K4^-) (natural protein, UniProt P73407 1-112, looked up, CcmK4, Synechocystis sp; PCC6803, full-length gene, codon-optimized for E. coli; Sample partly degraded by proteolysis (species of similar but not identical mass in native MS); Measured mass indicated loss of the first Met residue; also called Syn6803 K4^-; source: E. coli BL21 (DE3), purified (TALON cobalt IMAC), tag removed with turbo TEV protease; not shown: His4, C-terminal, cleaved) MSAQSAVGSIETIGFPGILAAADAMVKAGRITIVGYIRAGSARFTLNIRGDVQEVKTAMAAGIDAINRTEGADVKTWVIIPRPHENVVAVLPIDFSPEVEPFREAAEGLNRR', 'stoichiometry N', 6),
  ('CcmK2 from Synechococcus elongatus PCC 7942 with C-terminal His6 tag (K2^-H Syn7942) (natural protein, Synechococcus elongatus PCC7942, UniProt Q03511 1-102, looked up, also called K2^-H 7942; Syn7942 K2^-H; source: E. coli BL21 (DE3), purified (TALON cobalt IMAC); not shown: His6, C-terminal, kept) MPIAVGMIETLGFPAVVEAADAMVKAARVTLVGYEKIGSGRVTVIVRGDVSEVQASVSAGLDSAKRVAGGEVLSHHIIARPHENLEYVLPIRYTEAVEQFRM', 'stoichiometry N', 6),
  ('CcmK1 from Synechocystis sp. PCC6803, TEV-proteolysis product of K1^-TH (K1^-) (natural protein, UniProt P72760 1-111, looked up, CcmK1, Synechocystis sp; PCC6803, full-length gene, codon-optimized for E. coli; Measured mass indicated loss of the first Met residue; also called untagged K1^- 6803; Syn6803 K1^-; source: E. coli BL21 (DE3), purified (TALON cobalt IMAC), tag removed with turbo TEV protease; not shown: His4, C-terminal, cleaved) MSIAVGMIETLGFPAVVEAADSMVKAARVTLVGYEKIGSGRVTVIVRGDVSEVQASVTAGIENIRRVNGGEVLSNHIIARPHENLEYVLPIRYTEAVEQFREIVNPSIIRR', 'stoichiometry N', 6),
  ('CcmK4 from Synechocystis sp. PCC6803, TEV-proteolysis product of ^HT-K4 (^-K4) (natural protein, UniProt P73407 1-112, looked up, CcmK4, Synechocystis sp; PCC6803, full-length gene, codon-optimized for E. coli; also called Syn6803 -K4; source: E. coli BL21 (DE3), purified (TALON cobalt IMAC), tag removed with turbo TEV protease; not shown: His4, N-terminal, cleaved) MSAQSAVGSIETIGFPGILAAADAMVKAGRITIVGYIRAGSARFTLNIRGDVQEVKTAMAAGIDAINRTEGADVKTWVIIPRPHENVVAVLPIDFSPEVEPFREAAEGLNRR', 'stoichiometry N', 6);
